system: MCF-7 Tam1; assay: relative IC50 (midpoint of fitted logistic curve, plateau may be below 50% inhibition; CellTiter-Glo viability); higher = less potent; conditions: 4-OH-tamoxifen in medium 1 µM; 72 h
measureName: relative IC50

Example cases with answers are listed next.
compound	result
C=CCNC1=C2C[C@@H](C)C[C@H](OC)[C@H](O)[C@@H](C)/C=C(\C)[C@H](OC(N)=O)[C@@H](OC)/C=C\C=C(/C)C(=O)NC(=CC1=O)C2=O	444 nM
CO[C@@]12[C@H](COC(N)=O)C3=C(C(=O)C(C)=C(N)C3=O)N1C[C@@H]1N[C@@H]12	> 10000 nM
O=C(O)C(=O)O.[NH-][C@@H]1CCCC[C@H]1[NH-].[Pt+2]	> 10000 nM

Given COc1cc(F)c(F)c(Nc2ccc(I)cc2F)c1NS(=O)(=O)C1(C[C@H](O)CO)CC1 [Refametinib (RDEA119)] , report its relative IC50 on MCF-7 Tam1. 389 nM

Given CS(=O)(=O)N1CCN(Cc2cc3nc(-c4cccc5[nH]ncc45)nc(N4CCOCC4)c3s2)CC1 , report its relative IC50 on MCF-7 Tam1. 582 nM

Given Cc1ccc(Nc2nccc(N(C)c3ccc4c(C)n(C)nc4c3)n2)cc1S(N)(=O)=O , report its relative IC50 on MCF-7 Tam1. > 10000 nM

Given CC(C)C[C@H](NC(=O)[C@H](Cc1ccccc1)NC(=O)c1cnccn1)B(O)O , report its relative IC50 on MCF-7 Tam1. 39.9 nM

Given CO[C@H]1C[C@@H]2CC[C@@H](C)[C@@](O)(O2)C(=O)C(=O)N2CCCC[C@H]2C(=O)O[C@H]([C@H](C)C[C@@H]2CC[C@@H](O)[C@H](OC)C2)CC(=O)[C@H](C)/C=C(\C)[C@@H](O)[C@@H](OC)C(=O)[C@H](C)C[C@H](C)/C=C/C=C/C=C/1C [Sirolimus (Rapamycin)] , report its relative IC50 on MCF-7 Tam1. > 1000 nM

Given COC(=O)c1ccc2c(c1)NC(=O)/C2=C(\Nc1ccc(N(C)C(=O)CN2CCN(C)CC2)cc1)c1ccccc1 , report its relative IC50 on MCF-7 Tam1. > 10000 nM

Given Nc1cccc2c1CN(C1CCC(=O)NC1=O)C2=O (stereo unspecified) [Lenalidomide] , report its relative IC50 on MCF-7 Tam1. > 10000 nM

Given CN1CCC(COc2cnc(-c3cccc(Cn4nc(-c5cccc(C#N)c5)ccc4=O)c3)nc2)CC1 , report its relative IC50 on MCF-7 Tam1. > 1000 nM

Given CC1=C(/C=C/C(C)=C/C=C/C(C)=C/C(=O)O)C(C)(C)CCC1 , report its relative IC50 on MCF-7 Tam1. > 10000 nM

Given CC(=O)O[C@H]1C(=O)[C@@]2(C)[C@H]([C@H](OC(=O)c3ccccc3)[C@]3(O)C[C@H](OC(=O)[C@H](O)[C@@H](NC(=O)c4ccccc4)c4ccccc4)C(C)=C1C3(C)C)[C@]1(OC(C)=O)CO[C@@H]1C[C@@H]2O , report its relative IC50 on MCF-7 Tam1. > 1000 nM

Given COc1cccc2cc(-c3nc([C@H]4CC[C@H](C(=O)O)CC4)n4ncnc(N)c34)[nH]c12 , report its relative IC50 on MCF-7 Tam1. 713 nM

Given COC1=CC(c2cc3ccccc3[nH]2)=N/C1=C\c1[nH]c(C)cc1C , report its relative IC50 on MCF-7 Tam1. 1790 nM

Given COc1c2occc2cc2ccc(=O)oc12 , report its relative IC50 on MCF-7 Tam1. > 10000 nM
